In what follows, each item is paired with its IC50 for mRNA cap guanine-N(7) methyltransferase (Homo sapiens, UniProt O43148).
Measurement Type: IC50 (µM)

Nc1ncnc2c1ncn2[C@@H]1O[C@H](CN(CCO[C@@H]2[C@H](O)[C@@H](CO)O[C@H]2n2cnc3c(N)ncnc32)CC[C@H](N)C(=O)O)[C@@H](O)[C@H]1O = 10.9
Nc1ncnc2c1ncn2[C@@H]1OC(CN(CCO[C@@H]2[C@H](O)C(CO)O[C@H]2n2cnc3c(N)ncnc32)S(=O)(=O)c2ccc(C(F)(F)F)cc2[N+](=O)[O-])[C@@H](O)[C@H]1O (single isomer, unassigned) = 276
COc1cc([N+](=O)[O-])ccc1S(=O)(=O)N(CCO[C@@H]1[C@H](O)C(CO)O[C@H]1n1cnc2c(N)ncnc21)CC1O[C@@H](n2cnc3c(N)ncnc32)[C@H](O)[C@@H]1O (single isomer, unassigned) = 169

###

- Subject Of Test: UniProtKB O43148
pIC50: −log10 of the molar value.
Readings of pIC50 for the listed compounds
Measurement Type: pIC50

Nc1ncnc2c1ncn2[C@@H]1OC(CN(CCO[C@@H]2[C@H](O)C(CO)O[C@H]2n2cnc3c(N)ncnc32)S(=O)(=O)c2ccc(Cl)c([N+](=O)[O-])c2)[C@@H](O)[C@H]1O (single isomer, unassigned) = 3.61
Nc1ncnc2c1ncn2[C@@H]1OC(CN(CCO[C@@H]2[C@H](O)C(CO)O[C@H]2n2cnc3c(N)ncnc32)S(=O)(=O)c2ccc([N+](=O)[O-])cc2)[C@@H](O)[C@H]1O (single isomer, unassigned) = < 3.30
Nc1ncnc2c1ncn2[C@@H]1O[C@H](C[C@@H](N)CC[C@H](N)C(=O)O)[C@@H](O)[C@H]1O = > 7.30

###

- System: Severe acute respiratory syndrome-related coronavirus
- Run Description: Binding affinity to SARS-CoV nsp14 assessed as increase in melting temperature at 1 mM at pH 7.5 by differential scanning fluorimetry
Measurement Type: ΔTm (°C)

Nc1ncnc2c1ncn2[C@@H]1O[C@H](C[C@@H](N)CC[C@H](N)C(=O)O)[C@@H](O)[C@H]1O [SINEFUNGIN] = 4.4
Nc1ncnc2c1ncn2[C@@H]1OC(CN(CCO[C@@H]2[C@H](O)C(CO)O[C@H]2n2cnc3c(N)ncnc32)S(=O)(=O)c2ccc(C(F)(F)F)cc2[N+](=O)[O-])[C@@H](O)[C@H]1O (single isomer, unassigned) = 4.6
COc1cc([N+](=O)[O-])ccc1S(=O)(=O)N(CCO[C@@H]1[C@H](O)C(CO)O[C@H]1n1cnc2c(N)ncnc21)CC1O[C@@H](n2cnc3c(N)ncnc32)[C@H](O)[C@@H]1O (single isomer, unassigned) = 4.6
Nc1ncnc2c1ncn2[C@@H]1OC(CN(CCO[C@@H]2[C@H](O)C(CO)O[C@H]2n2cnc3c(N)ncnc32)S(=O)(=O)c2ccc(Cl)c([N+](=O)[O-])c2)[C@@H](O)[C@H]1O (single isomer, unassigned) = 10.8
COc1ccc(S(=O)(=O)N(CCO[C@@H]2[C@H](O)C(CO)O[C@H]2n2cnc3c(N)ncnc32)CC2O[C@@H](n3cnc4c(N)ncnc43)[C@H](O)[C@@H]2O)c([N+](=O)[O-])c1 (single isomer, unassigned) = 4.6
Nc1ncnc2c1ncn2[C@@H]1OC(CN(CCO[C@@H]2[C@H](O)C(CO)O[C@H]2n2cnc3c(N)ncnc32)S(=O)(=O)c2ccc([N+](=O)[O-])cc2)[C@@H](O)[C@H]1O (single isomer, unassigned) = 4.6

###

Readings of inhibition for the listed compounds
- System: Orthopoxvirus vaccinia
- Run Description: Inhibition of N7-MTase activity of Vaccinia virus mRNA capping enzyme D1/D12 complex using GpppAC4 and [3H]SAM as substrate at 50 uM preincubated with enzyme followed by substrate addition and measured after 30 mins by filter binding assay
Measurement Type: inhibition (%)

COC(=O)CCCN(CCO[C@@H]1[C@H](O)[C@@H](CO)O[C@H]1n1cnc2c(N)ncnc21)C[C@H]1O[C@@H](n2cnc3c(N)ncnc32)[C@H](O)[C@@H]1O = 69.2
Nc1ncnc2c1ncn2[C@@H]1O[C@H](C[C@@H](N)CC[C@H](N)C(=O)O)[C@@H](O)[C@H]1O = 99.8
Nc1ncnc2c1ncn2[C@@H]1O[C@H](CN(CCO[C@@H]2[C@H](O)[C@@H](CO)O[C@H]2n2cnc3c(N)ncnc32)CC[C@H](N)C(=O)O)[C@@H](O)[C@H]1O = 85.8

###

- Test system: West Nile virus
- Run Description: Inhibition of 2'-O-methyltransferase in West-Nile virus at 200 uM
The source made the active and inactive calls. No cut-off for these calls is given here.
Measurement Type: inhibition

Nc1ncnc2c1ncn2[C@@H]1OC(CN(CCO[C@@H]2[C@H](O)C(CO)O[C@H]2n2cnc3c(N)ncnc32)Cc2ccc(Cl)c([N+](=O)[O-])c2)[C@@H](O)[C@H]1O (single isomer, unassigned) = inactive
Nc1ncnc2c1ncn2[C@@H]1OC(CN(CCO[C@@H]2[C@H](O)C(CO)O[C@H]2n2cnc3c(N)ncnc32)S(=O)(=O)c2ccc(C(F)(F)F)cc2[N+](=O)[O-])[C@@H](O)[C@H]1O (single isomer, unassigned) = inactive

###

- System: Zika virus
- Run Description: Inhibition of 2'-O-methyltransferase in Zika virus at 200 uM
Activity calls are given as the source filed them. The rule behind the calls is not given here.
Measurement Type: inhibition

Nc1ncnc2c1ncn2[C@@H]1O[C@H](CN(CCCC(=O)O)CCO[C@@H]2[C@H](O)[C@@H](CO)O[C@H]2n2cnc3c(N)ncnc32)[C@@H](O)[C@H]1O = inactive
COC(=O)CCCN(CCO[C@@H]1[C@H](O)[C@@H](CO)O[C@H]1n1cnc2c(N)ncnc21)C[C@H]1O[C@@H](n2cnc3c(N)ncnc32)[C@H](O)[C@@H]1O = inactive
Nc1ncnc2c1ncn2[C@@H]1O[C@H](CN(CCO[C@@H]2[C@H](O)[C@@H](CO)O[C@H]2n2cnc3c(N)ncnc32)CC[C@H](N)C(=O)O)[C@@H](O)[C@H]1O = inactive
Nc1ncnc2c1ncn2[C@@H]1OC(CN(CCO[C@@H]2[C@H](O)C(CO)O[C@H]2n2cnc3c(N)ncnc32)S(=O)(=O)c2ccc([N+](=O)[O-])cc2)[C@@H](O)[C@H]1O (single isomer, unassigned) = inactive
Nc1ncnc2c1ncn2[C@@H]1OC(CN(CCO[C@@H]2[C@H](O)C(CO)O[C@H]2n2cnc3c(N)ncnc32)S(=O)(=O)c2ccc(C(F)(F)F)cc2[N+](=O)[O-])[C@@H](O)[C@H]1O (single isomer, unassigned) = inactive
COC(=O)[C@@H](N)CCN(CCO[C@@H]1[C@H](O)[C@@H](CO)O[C@H]1n1cnc2c(N)ncnc21)C[C@H]1O[C@@H](n2cnc3c(N)ncnc32)[C@H](O)[C@@H]1O = inactive
NC(=O)[C@@H](N)CCN(CCO[C@@H]1[C@H](O)[C@@H](CO)O[C@H]1n1cnc2c(N)ncnc21)C[C@H]1O[C@@H](n2cnc3c(N)ncnc32)[C@H](O)[C@@H]1O = inactive
CCCCN(CCO[C@@H]1[C@H](O)[C@@H](CO)O[C@H]1n1cnc2c(N)ncnc21)C[C@H]1O[C@@H](n2cnc3c(N)ncnc32)[C@H](O)[C@@H]1O = inactive
Nc1ncnc2c1ncn2[C@@H]1O[C@H](CNCCO[C@@H]2[C@H](O)[C@@H](CO)O[C@H]2n2cnc3c(N)ncnc32)[C@@H](O)[C@H]1O = inactive
COc1cc([N+](=O)[O-])ccc1S(=O)(=O)N(CCO[C@@H]1[C@H](O)C(CO)O[C@H]1n1cnc2c(N)ncnc21)CC1O[C@@H](n2cnc3c(N)ncnc32)[C@H](O)[C@@H]1O (single isomer, unassigned) = inactive
COc1ccc(S(=O)(=O)N(CCO[C@@H]2[C@H](O)C(CO)O[C@H]2n2cnc3c(N)ncnc32)CC2O[C@@H](n3cnc4c(N)ncnc43)[C@H](O)[C@@H]2O)c([N+](=O)[O-])c1 (single isomer, unassigned) = inactive
Nc1ncnc2c1ncn2[C@@H]1OC(CN(CCO[C@@H]2[C@H](O)C(CO)O[C@H]2n2cnc3c(N)ncnc32)Cc2ccc(Cl)cc2)[C@@H](O)[C@H]1O (single isomer, unassigned) = inactive
Nc1ncnc2c1ncn2[C@@H]1OC(CN(CCCc2ccccc2)CCO[C@@H]2[C@H](O)C(CO)O[C@H]2n2cnc3c(N)ncnc32)[C@@H](O)[C@H]1O (single isomer, unassigned) = inactive
Nc1ncnc2c1ncn2[C@@H]1OC(CN(CCO[C@@H]2[C@H](O)C(CO)O[C@H]2n2cnc3c(N)ncnc32)Cc2ccc(Cl)c([N+](=O)[O-])c2)[C@@H](O)[C@H]1O (single isomer, unassigned) = inactive
Nc1ncnc2c1ncn2[C@@H]1OC(CN(CCO[C@@H]2[C@H](O)C(CO)O[C@H]2n2cnc3c(N)ncnc32)S(=O)(=O)c2ccc(Cl)c([N+](=O)[O-])c2)[C@@H](O)[C@H]1O (single isomer, unassigned) = inactive
Nc1ncnc2c1ncn2[C@@H]1OC(CN(CCO[C@@H]2[C@H](O)C(CO)O[C@H]2n2cnc3c(N)ncnc32)S(=O)(=O)c2ccc(Cl)cc2)[C@@H](O)[C@H]1O (single isomer, unassigned) = inactive
